// provenance: ChEMBL document CHEMBL5214928

- method_summary: Half life in mouse administered intravenously
- Type: ADME
- condition_parameters: in vivo, route iv
readout_label: half-life (h)
// return numeric value only (unit: h, not printed)

Give the measured half-life for CC(C)Cc1cn(-c2ccc(NC(=O)Nc3ccc4cnccc4c3)cc2)nn1
5

---

- method_summary: Selectivity index, ratio of CC50 for human Huh-7 cells to EC50 for HCV-1 infected in human Huh-7 cells
- Assay type: toxicity, cell-based
- condition_parameters: read-out: Ratio CC50/EC50
readout_label: selectivity ratio

Give the measured selectivity ratio for COc1ccc(Cn2c3ncnc4c(ncn4Cc4ccc(OC)cc4)c-3nc2=O)cc1
< 5

---

- method_summary: Selectivity index, ratio of CC50 for African green monkey Vero cells to EC50 for hPIV-3 infected in African green monkey Vero cells
- Format: toxicity
- condition_parameters: read-out: Ratio CC50/EC50
readout_label: selectivity ratio
Write no unit; give the number alone.

Give the measured selectivity ratio for COc1ccc(Cn2c3ncnc4c(ncn4Cc4ccc(OC)cc4)c-3nc2=O)cc1
1
